Tested on: GH3-TRE-Luc cell line
measurement.conditions: read-out: AC50 (uM) modified / 1000; Tox21_110001=Tox21_113537; viability, 1 nM T3 present, 24 h
property: CC50 (µM)
Reply with just the number (in µM).

What does the record list as CC50 for Cc1cc(C(C)(C)C)c(O)c(C(C)(C)C)c1 [Butylated hydroxytoluene] ? 42.9

* * *

protocol: in vitro
measurement.conditions: rat, gh3-tre-luc cells, AC50 (uM) modified / 1000, Tox21_110001=Tox21_112058; viability, 1 nM T3 present, 24 h
property: CC50 at 24 h

If you can, please state the reported CC50 at 24 h value of O[C@H]1[C@H]2[C@H](O)CCCN2C[C@H]1O [Swainsonine] . > 50 µM
